Here, each record is paired with measured GI50 data.
# Test system: IGROV-1
# protocolText: Antiproliferative activity against human IGROV1 cells by SRB assay
# Type: functional
Value expressed in nM; do not type the unit.

Some entries whose results are on file:
compound	reportedValue
CC(/C=C/c1ccccc1)n1cc(/C=C/C(=O)NO)nn1 (centres undefined)	564
O=C(/C=C/c1ccc(CN(CCO)CCc2c[nH]c3ccccc23)cc1)NO	187
CC(C)C(/C=C/c1ccccc1)n1cc(/C=C/C(=O)NO)nn1 (centres undefined)	1080

query: Recall and state the measured GI50 for O=C(/C=C/c1cn(C(/C=C/c2ccccc2)Cc2ccccc2)nn1)NO (centres undefined) .
result: 836

* * *

GI50 for assorted molecules
# System: SNB-75
# protocolText: Antiproliferative activity against human SNB75 cells by SRB assay
# Format: functional
Report only the number, with the unit µM understood.

Illustrative cases are given below, each with its answer.
molecule	unitString	GI50
CC(/C=C/c1ccccc1)n1cc(/C=C/C(=O)NO)nn1 (centres undefined)	µM	0.924
O=C(/C=C/c1cn(C(/C=C/c2ccccc2)Cc2ccccc2)nn1)NO (centres undefined)	µM	0.258
O=C(/C=C/c1ccc(CN(CCO)CCc2c[nH]c3ccccc23)cc1)NO [DACINOSTAT]	µM	0.318

Lab note: next molecule to report on.
query: Answer with the recorded GI50 for the molecule listed here: CC(C)C(/C=C/c1ccccc1)n1cc(/C=C/C(=O)NO)nn1 (centres undefined)
result: 1.82

* * *

# System: UO-31
# protocolText: Antiproliferative activity against human UO31 cells by SRB assay
# Format: functional
Readings of GI50 for the listed molecules
Give the number; nM is assumed, so skip it.

molecule	GI50, nM
O=C(/C=C/c1cn(C(/C=C/c2ccccc2)Cc2ccccc2)nn1)NO (centres undefined)	650

query: Input O=C(/C=C/c1ccc(CN(CCO)CCc2c[nH]c3ccccc23)cc1)NO [DACINOSTAT] , output reported GI50.
result: 1120

query: Report measured GI50; entry is CC(/C=C/c1ccccc1)n1cc(/C=C/C(=O)NO)nn1 (centres undefined)
result: 549

query: Entry CC(C)C(/C=C/c1ccccc1)n1cc(/C=C/C(=O)NO)nn1 (centres undefined) needs its GI50 filled in; supply it.
result: 1480

* * *

# Lookup of reported LC50 keyed by entry
# Test system: HOP-92
# protocolText: Cytotoxicity against human HOP92 cells
# Assay type: cell-based
# unit: µM | format: bare number

compound	endpointLabel	reportedValue
CC(C)C(/C=C/c1ccccc1)n1cc(/C=C/C(=O)NO)nn1 (centres undefined)	LC50	22.1
CC(/C=C/c1ccccc1)n1cc(/C=C/C(=O)NO)nn1 (centres undefined)	LC50	7.53
O=C(/C=C/c1ccc(CN(CCO)CCc2c[nH]c3ccccc23)cc1)NO	LC50	68.2

Shift focus to the following entry.
query: Give LC50 for the following compound: O=C(/C=C/c1cn(C(/C=C/c2ccccc2)Cc2ccccc2)nn1)NO (centres undefined)
result: 11.6

* * *

# System: OVCAR-4
# protocolText: Cytotoxicity against human OVCAR4 cells
# Type: cell-based
endpointLabel: LC50 (µM)
Write the answer as a number in µM, unit excluded.

molecule	unitString	reportedValue
CC(/C=C/c1ccccc1)n1cc(/C=C/C(=O)NO)nn1 (centres undefined)	µM	18.3
O=C(/C=C/c1cn(C(/C=C/c2ccccc2)Cc2ccccc2)nn1)NO (centres undefined)	µM	61.6

Next molecule, LC50 to be filled in.
query: Dear colleague, please send me the reported LC50 for CC(C)C(/C=C/c1ccccc1)n1cc(/C=C/C(=O)NO)nn1 (centres undefined) when you can.
result: 71.4

* * *

In this section, each of the molecules is paired with its reported LC50.
# Tested on: MCF7
# protocolText: Cytotoxicity against human MCF7 cells
# Type: cell-based

molecule	measuredOn	endpointLabel	reportedValue
O=C(/C=C/c1ccc(CN(CCO)CCc2c[nH]c3ccccc23)cc1)NO [DACINOSTAT]	MCF7	LC50	> 100 µM
CC(C)C(/C=C/c1ccccc1)n1cc(/C=C/C(=O)NO)nn1 (centres undefined)	MCF7	LC50	> 100 µM
O=C(/C=C/c1cn(C(/C=C/c2ccccc2)Cc2ccccc2)nn1)NO (centres undefined)	MCF7	LC50	93.2 µM

query: Entry CC(/C=C/c1ccccc1)n1cc(/C=C/C(=O)NO)nn1 (centres undefined) needs its LC50 filled in; supply it.
result: > 100 µM

* * *

# Tested on: SF-268
# protocolText: Cytotoxicity against human SF268 cells
# Assay type: cell-based
Documented LC50 across a set of compounds
// units = µM; emit number, no label

query: Note LC50 for the compound shown: CC(C)C(/C=C/c1ccccc1)n1cc(/C=C/C(=O)NO)nn1 (centres undefined)
result: 29.7

query: Please list LC50 recorded for the compound O=C(/C=C/c1ccc(CN(CCO)CCc2c[nH]c3ccccc23)cc1)NO
result: 92.1

query: Give the value of LC50 reported for the following: O=C(/C=C/c1cn(C(/C=C/c2ccccc2)Cc2ccccc2)nn1)NO (centres undefined)
result: 9.17

query: Indicate the recorded LC50 value for this compound: CC(/C=C/c1ccccc1)n1cc(/C=C/C(=O)NO)nn1 (centres undefined)
result: 12.2

* * *

# Tested on: U-251
# protocolText: Cytotoxicity against human U251 cells
# Format: cell-based
# reported LC50; entries follow
# value in µM; strip the unit string

Example compounds with recorded LC50:
compound	measuredOn	LC50 (µM)
CC(/C=C/c1ccccc1)n1cc(/C=C/C(=O)NO)nn1 (centres undefined)	U-251	4.5
O=C(/C=C/c1ccc(CN(CCO)CCc2c[nH]c3ccccc23)cc1)NO	U-251	5.82
CC(C)C(/C=C/c1ccccc1)n1cc(/C=C/C(=O)NO)nn1 (centres undefined)	U-251	5.66

query: Enter recorded LC50 with U-251 for O=C(/C=C/c1cn(C(/C=C/c2ccccc2)Cc2ccccc2)nn1)NO (centres undefined) here.
result: 5.84

* * *

Entries and their measured LC50 follow.
# Test system: SNB-75
# protocolText: Cytotoxicity against human SNB75 cells
# Assay type: cell-based
Just the number in µM, nothing appended.

query: Respond only with LC50 recorded for CC(/C=C/c1ccccc1)n1cc(/C=C/C(=O)NO)nn1 (centres undefined)
result: 33.9

query: Fill in LC50 for record O=C(/C=C/c1cn(C(/C=C/c2ccccc2)Cc2ccccc2)nn1)NO (centres undefined)
result: 9.83

query: Supply LC50 value. Item: CC(C)C(/C=C/c1ccccc1)n1cc(/C=C/C(=O)NO)nn1 (centres undefined)
result: 38.3

* * *

# Tested on: MOLT-4
# protocolText: Antiproliferative activity against human MOLT4 cells by SRB assay
# Format: functional
endpointLabel: GI50 (µM)
Please give a number only; it is taken to be in µM.

The cases that follow already have their GI50 on record.
compound	measuredOn	GI50 (µM)
CC(/C=C/c1ccccc1)n1cc(/C=C/C(=O)NO)nn1 (centres undefined)	MOLT-4	0.377
O=C(/C=C/c1ccc(CN(CCO)CCc2c[nH]c3ccccc23)cc1)NO	MOLT-4	0.311
CC(C)C(/C=C/c1ccccc1)n1cc(/C=C/C(=O)NO)nn1 (centres undefined)	MOLT-4	0.427

Alright, here's another compound for you.
query: Provide measured GI50 value, entry: O=C(/C=C/c1cn(C(/C=C/c2ccccc2)Cc2ccccc2)nn1)NO (centres undefined)
result: 0.493

* * *

# System: CCRF-CEM
# protocolText: Cytotoxicity against human CCRF-CEM cells
# Assay type: cell-based
In this section we review reported LC50 values for a set of compounds.

The following compounds have reported results that may help.
compound	LC50
O=C(/C=C/c1ccc(CN(CCO)CCc2c[nH]c3ccccc23)cc1)NO [DACINOSTAT]	> 100 µM
O=C(/C=C/c1cn(C(/C=C/c2ccccc2)Cc2ccccc2)nn1)NO (centres undefined)	> 100 µM
CC(C)C(/C=C/c1ccccc1)n1cc(/C=C/C(=O)NO)nn1 (centres undefined)	> 100 µM

Attention now turns to another entry.
query: Identify measured LC50 corresponding to CC(/C=C/c1ccccc1)n1cc(/C=C/C(=O)NO)nn1 (centres undefined)
result: > 100 µM

* * *

# System: UACC-62
# protocolText: Cytotoxicity against human UACC62 cells
# Format: cell-based
endpointLabel: LC50 (µM)
Write down the numeric answer in µM and omit the unit.

compound	LC50 / µM
O=C(/C=C/c1cn(C(/C=C/c2ccccc2)Cc2ccccc2)nn1)NO (centres undefined)	6.34
O=C(/C=C/c1ccc(CN(CCO)CCc2c[nH]c3ccccc23)cc1)NO	6.39
CC(C)C(/C=C/c1ccccc1)n1cc(/C=C/C(=O)NO)nn1 (centres undefined)	6.61

query: // fetch LC50 given entry CC(/C=C/c1ccccc1)n1cc(/C=C/C(=O)NO)nn1 (centres undefined)
result: 7.99

* * *

# Tested on: COLO 205
# protocolText: Antiproliferative activity against human COLO205 cells by SRB assay
# Type: functional
GI50 values, listed per item
Answer with a number only, understood to be in nM.

// below: answered molecules
molecule	reportedValue
O=C(/C=C/c1cn(C(/C=C/c2ccccc2)Cc2ccccc2)nn1)NO (centres undefined)	1100
CC(C)C(/C=C/c1ccccc1)n1cc(/C=C/C(=O)NO)nn1 (centres undefined)	932
CC(/C=C/c1ccccc1)n1cc(/C=C/C(=O)NO)nn1 (centres undefined)	469

query: Look up GI50 of O=C(/C=C/c1ccc(CN(CCO)CCc2c[nH]c3ccccc23)cc1)NO [DACINOSTAT] and report it.
result: 1080
